Measured viability at 24 h, 50 µM values are reported for all entries that follow.
assay-protocol: MTT cell viability assay
Format: cell-based
experimental-setup: human, U-87 MG glioblastoma astrocytoma cells, U-87 MG cells, 50 µM
endpoint-name: viability at 24 h, 50 µM

[
  {
    "molecule": "O=C(Cc1ccc(Oc2ccccc2)cc1)NCCCCCCNc1ccccn1 [Compound 14]",
    "endpoint-name": "viability at 24 h, 50 µM",
    "observed": "> 30%"
  },
  {
    "molecule": "O=C(NCCCCCCNc1ccccn1)c1ccccc1 [Compound 12, N-(6-(pyridin-2-ylamino)hexyl)benzamide]",
    "endpoint-name": "viability at 24 h, 50 µM",
    "observed": "> 35%"
  },
  {
    "molecule": "O=C(NCCCCCCNc1ccccn1)Oc1ccccc1 [Compound 18]",
    "endpoint-name": "viability at 24 h, 50 µM",
    "observed": "> 35%"
  }
]
